molecular target: ITK kinase domain (Homo sapiens); construct: N-terminally His-tagged ITK kinase domain (amino acids 352-617); His (N); made in house; assay: In vitro kinase assay (HITHUNTER enzyme fragment complementation), ITK; format: biochemical; settings: Table 5; read-out: IC50 ITK

compound	tgt	IC50 / nM
CN(C)C1CCN(CCC(=O)c2ccc3ccccc3c2)CC1 [drawing 216]	ITK kinase domain (Homo sapiens)	9.5
O=C(CCN1CCC(c2ccccn2)C1)c1ccc2ccccc2c1 (stereo not drawn)	ITK kinase domain (Homo sapiens)	35.9
O=C(CCN1CCC[C@@H]1CO)c1ccc2ccccc2c1	ITK kinase domain (Homo sapiens)	49
CC(=O)N1CCN(CCC(=O)c2ccc3ccccc3c2)CC1	ITK kinase domain (Homo sapiens)	66
O=C(CCN1CCN(c2ccccn2)CC1)c1ccc2ccccc2c1 [drawing 211]	ITK kinase domain (Homo sapiens)	24.2
CC(C)(C)C(=O)N1CCN(CCC(=O)c2ccc3ccccc3c2)CC1	ITK kinase domain (Homo sapiens)	64

* * *

Quick list: log10 of IC50 per entry.
Target: ITK kinase domain (Homo sapiens)
Construct: N-terminally His-tagged ITK kinase domain (amino acids 352-617); His (N); made in house
Sequence (Q08881 352-617): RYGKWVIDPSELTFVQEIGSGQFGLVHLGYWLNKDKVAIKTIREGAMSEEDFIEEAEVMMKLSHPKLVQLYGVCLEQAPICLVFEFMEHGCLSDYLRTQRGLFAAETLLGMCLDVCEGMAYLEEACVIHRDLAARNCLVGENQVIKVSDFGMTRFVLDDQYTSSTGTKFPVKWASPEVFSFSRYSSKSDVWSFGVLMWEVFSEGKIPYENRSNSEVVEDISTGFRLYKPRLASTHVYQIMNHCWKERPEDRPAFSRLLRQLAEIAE
Test: In vitro kinase assay (HITHUNTER enzyme fragment complementation), ITK
Type: biochemical
Conditions: Table 1; ITK; read-out: IC50
observed_property: log10 of IC50 (log10 of the value in nM)

molecule	log10 of IC50
O=C(CCN1CCOCC1)c1ccc2ccccc2c1 [drawing 117]	1.86
CC(C)CN(C)CCC(=O)c1ccc2ccccc2c1	1.13
CC(C)N(CCC(=O)c1ccc2ccccc2c1)C(C)C [drawing 104]	1.26
O=C(CCN1CCN(CC2CCCCC2)CC1)c1ccc2ccccc2c1 [drawing 111]	1.06
CN1CCN(CCC(=O)c2ccc3ccccc3c2)CC1 [drawing 110]	1.70
O=C(CCN1CCN(c2ccccc2)CC1)c1ccc2ccccc2c1	0.63
CN(CCC(=O)c1ccc2ccccc2c1)Cc1ccccc1 [drawing 107]	1.41
CN(CCC(=O)c1ccc2ccccc2c1)Cc1ccco1 [drawing 118]	1.29
O=C(CCN1Cc2ccccc2C1)c1ccc2ccccc2c1 [drawing 114]	1.46
O=C(CCN1CCc2ccccc2C1)c1ccc2ccccc2c1 [drawing 115]	1.26

* * *

biological target: ITK kinase domain (Homo sapiens); construct: N-terminally His-tagged ITK kinase domain (amino acids 352-617); His (N); made in house; assay: In vitro kinase assay (HITHUNTER enzyme fragment complementation), ITK; assay type: biochemical; conditions: Table 5; read-out: IC50 ITK
just bin them by IC50: I (below 20 nM), II (20 nM to below 90 nM), III (90 nM or more)

molecule	label_value
CN(C)C1CCN(CCC(=O)c2ccc3ccccc3c2)C1 (centres unmarked) [drawing 214]	I
O=C(CCN1CCN(CC2CCCCC2)CC1)c1ccc2ccccc2c1 [drawing 219]	I
CN(CCC(=O)c1ccc2ccccc2c1)Cc1ccco1 [drawing 215]	I
CN(C)C(=O)N1CCN(CCC(=O)c2ccc3ccccc3c2)CC1	II
CC1CCCN1CCC(=O)c1ccc2ccccc2c1 (centres unmarked)	III
NC(=O)N1CCN(CCC(=O)c2ccc3ccccc3c2)CC1	II
CC(C)N(CCC(=O)c1ccc2ccccc2c1)C(C)C [drawing 220]	I
CN1CCN(CCC(=O)c2ccc3ccccc3c2)CC1 [drawing 208]	II
O=C(CCN1CCC(Cc2ccccc2)CC1)c1ccc2ccccc2c1 [drawing 204]	II
O=C(CCN1CCN(C(=O)N2CCOCC2)CC1)c1ccc2ccccc2c1	II
O=C(CCN1CCN(c2ccccn2)CC1)c1ccc2ccccc2c1 [drawing 205]	I
O=C(CCNCC1CCNCC1)c1ccc2ccccc2c1	III
COc1cc2c(cc1OC)CN(CCC(=O)c1ccc3ccccc3c1)CC2 [drawing 212]	I
CC(C)N(C)CCC(=O)c1ccc2ccccc2c1	I
CC1CCN(CCC(=O)c2ccc3ccccc3c2)CC1	III
O=C(CCN1CCSCC1)c1ccc2ccccc2c1	II
O=C(CCN1CCN(C(=O)c2ccncc2)CC1)c1ccc2ccccc2c1	II
O=C(CCNCC1CCN(C(=O)c2ccncc2)CC1)c1ccc2ccccc2c1	II
O=C(CCN1CCCC1)c1ccc2ccccc2c1 [drawing 201]	III
O=C(CCN1CCCCC1)c1ccc2ccccc2c1	III
CN(C)C(=O)N1CCC(CNCCC(=O)c2ccc3ccccc3c2)CC1	III
O=C(CCN1Cc2ccccc2C1)c1ccc2ccccc2c1 [drawing 217]	I
O=C(CCN1CCC(C(=O)c2ccncc2)CC1)c1ccc2ccccc2c1	III
O=C(CCN1CCCCNC1)c1ccc2ccccc2c1	II
O=C(CCN1CCNCC1)c1ccc2ccccc2c1	III

* * *

The following compounds are listed with their measured pIC50 values.
Biological target: ITK kinase domain (Homo sapiens)
Construct: N-terminally His-tagged ITK kinase domain (amino acids 352-617); His (N); made in house
Sequence (Q08881 352-617): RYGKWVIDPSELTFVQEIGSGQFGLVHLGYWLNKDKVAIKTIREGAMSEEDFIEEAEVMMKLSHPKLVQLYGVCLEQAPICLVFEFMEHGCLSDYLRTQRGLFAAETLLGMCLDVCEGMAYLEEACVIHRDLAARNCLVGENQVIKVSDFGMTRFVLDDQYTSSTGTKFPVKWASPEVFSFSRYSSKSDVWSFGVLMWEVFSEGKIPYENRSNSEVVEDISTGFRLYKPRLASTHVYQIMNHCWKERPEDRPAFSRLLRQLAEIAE
Assay: In vitro kinase assay (HITHUNTER enzyme fragment complementation), ITK
Assay type: biochemical
Settings: Table 3, Compound; read-out: IC50 ITK
pIC50: −log10 of the molar value.

compound	pIC50
O=C1COc2ccc(C(=O)CCN3CCOCC3)cc2N1 [drawing 166]	8.23
CN(C)C1CCN(CCC(=O)c2ccc3c(c2)NC(=O)CO3)CC1	7.89
CN(C)C1CCN(CCC(=O)C2=CC3NC(=O)COC3C=C2)C1 (stereo not shown)	7.14
COc1cc2c(cc1OC)CN(CCC(=O)c1ccc3c(c1)NC(=O)CO3)CC2 [drawing 168]	7.52
CN(CCC(=O)c1ccc2c(c1)NC(=O)CO2)Cc1ccc(F)cc1	8.00
CN(C)CCN1CCN(CCC(=O)c2ccc3c(c2)NC(=O)CO3)CC1	7.74
CC(C)N(CCC(=O)c1ccc2c(c1)NC(=O)CO2)C(C)C	7.64

* * *

target: BTK kinase domain (Homo sapiens, UniProt Q06187); construct: The kinase domains of BTK, LCK and ERK were expressed as recombinant purified proteins; made in house; experiment: In vitro kinase assay (HITHUNTER), BTK; assay type: biochemical; conditions: Table 4
Sequence (Q06187 402-655 limits assumed): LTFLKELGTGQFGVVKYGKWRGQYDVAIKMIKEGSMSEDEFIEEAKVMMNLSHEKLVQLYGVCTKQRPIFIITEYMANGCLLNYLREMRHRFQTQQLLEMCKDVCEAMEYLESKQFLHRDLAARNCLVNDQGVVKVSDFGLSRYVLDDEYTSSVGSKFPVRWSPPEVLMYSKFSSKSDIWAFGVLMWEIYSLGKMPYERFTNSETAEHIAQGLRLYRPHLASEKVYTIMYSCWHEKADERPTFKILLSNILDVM
pIC50: −log10 of the molar value.
Binary classification by pIC50, with 7 as an inclusive lower bound for condition met; all other cases are condition not met.

compound	label_value
O=C(CCN1CCOCC1)c1cc2ccccc2s1	condition met
O=C(CCN1CCOCC1)c1c[nH]c2ccccc12	condition not met
O=C(CCN1CCOCC1)c1n[nH]c2ccccc12	condition not met
NC(=O)c1ccc2cc(C(=O)CCN3CCOCC3)ccc2c1 [drawing 198]	condition met
O=C(CCN1CCOCC1)c1ccc2ccccc2n1	condition not met
O=C(O)c1ccc2cc(C(=O)CCN3CCOCC3)ccc2c1	condition not met
O=C(CCN1CCOCC1)c1ccc2sccc2c1	condition not met
O=C(CCN1CCOCC1)c1ccc2ccccc2c1 [drawing 185]	condition met
O=C(CCN1CCOCC1)c1csc2ccccc12	condition not met
O=C(CCN1CCOCC1)c1ccc2cc(O)ccc2c1	condition met
O=C(CCN1CCOCC1)c1ccc2occc2c1 [drawing 192]	condition not met
O=CNc1ccc2cc(C(=O)CCN3CCOCC3)ccc2c1	condition met

* * *

biological target: BTK kinase domain (Homo sapiens); construct: The kinase domains of BTK, LCK and ERK were expressed as recombinant purified proteins; made in house; test: In vitro kinase assay (HITHUNTER), BTK; type: biochemical; settings: Table 2
pIC50: −log10 of the molar value.
Class true (1): pIC50 at least 6. Class false (0): pIC50 below 6.

molecule	label_value
O=C(CCN1CCOCC1)c1cccc(Br)c1	true (1)
CCOc1ccccc1C(=O)CCN1CCOCC1	true (1)
O=C1COc2ccc(C(=O)CCN3CCOCC3)cc2N1 [drawing 120]	true (1)
O=C(CCN1CCOCC1)c1ccc(-c2ccccc2)cc1	true (1)
O=C(CCN1CCOCC1)c1ccc2ccccc2c1 [drawing 129]	true (1)
O=C(CCN1CCOCC1)c1ccc(Oc2ccccc2)cc1	true (1)
O=C(CCN1CCOCC1)c1ccc(Br)cc1	true (1)
COc1ccc(C(=O)CCN2CCOCC2)c(OC)c1	false (0)
O=C(CCN1CCOCC1)c1ccc2c(c1)OCCO2	false (0)
CN(C)c1cccc(C(=O)CCN2CCOCC2)c1	false (0)
O=C(CCN1CCOCC1)c1ccc(C(F)(F)F)cc1	true (1)
O=C(CCN1CCOCC1)c1ccc2c(c1)OCO2	false (0)
N#Cc1cccc(C(=O)CCN2CCOCC2)c1	true (1)
O=C(CCN1CCOCC1)c1ccc(N2CCOCC2)cc1	false (0)
O=C(CCN1CCOCC1)c1cccc(Oc2ccccc2)c1	true (1)
O=C(CCN1CCOCC1)c1c(Cl)cccc1Cl	true (1)
O=C(CCN1CCOCC1)c1ccc(Cl)c(Cl)c1	true (1)
O=C(CCN1CCOCC1)c1ccc(F)c(F)c1	false (0)
Cc1cccc(C(=O)CCN2CCOCC2)c1	false (0)
O=C(CCN1CCOCC1)c1cc(F)ccc1F	false (0)
